- assayed_target: Alkaline phosphatase, tissue-nonspecific isozyme (Homo sapiens) (UniProt P05186)
- Sequence (P05186 whole entry, looked up): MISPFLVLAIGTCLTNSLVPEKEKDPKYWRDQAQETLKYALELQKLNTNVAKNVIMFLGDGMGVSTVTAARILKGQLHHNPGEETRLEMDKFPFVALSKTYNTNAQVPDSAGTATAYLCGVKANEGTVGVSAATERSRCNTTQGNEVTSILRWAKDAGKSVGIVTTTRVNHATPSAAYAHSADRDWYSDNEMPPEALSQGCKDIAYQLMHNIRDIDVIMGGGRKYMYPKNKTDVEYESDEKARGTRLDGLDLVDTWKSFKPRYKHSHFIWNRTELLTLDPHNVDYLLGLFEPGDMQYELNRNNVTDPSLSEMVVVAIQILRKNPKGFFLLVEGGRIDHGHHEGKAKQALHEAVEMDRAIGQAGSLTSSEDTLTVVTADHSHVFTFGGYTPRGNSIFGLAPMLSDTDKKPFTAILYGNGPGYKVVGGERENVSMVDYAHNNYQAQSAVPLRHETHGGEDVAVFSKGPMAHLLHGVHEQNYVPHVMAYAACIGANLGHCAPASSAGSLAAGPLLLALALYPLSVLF
- protocol: human TNAP enzyme inhibitors, primary screen, biochemical, luminescent, high phosphate acceptor level, uHTS (AID 1135);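 note: plate controls were DMSO wells for no effect and EDTA-quenched wells as full inhibition for full effect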
- test_context: purified TNAP, CDP-star luminescence, 1 M DEA; at 20 µM; active compounds read high
About 65 (0.03%) of roughly 200,000 compounds were called active. The full list was thinned out, with actives kept by preference.
test_readout: inhibition

compound: CCN1CCN(C(C(=O)NC2CCCC2)c2cc3c(cc2[N+](=O)[O-])OCO3)CC1 (stereo unspecified)
assay_result: -2.4% (inactive)

compound: CCOC(=O)N/N=C/c1cn(Cc2ccccc2Cl)c2ccccc12
assay_result: 0.2% (inactive)

compound: O=C(/C=C/c1ccccc1Cl)Nc1ccc(S(=O)(=O)Nc2ncccn2)cc1
assay_result: -0.8% (inactive)

compound: CN(C)c1nccc(NCc2ccccc2)c1C#N
assay_result: 0.6% (inactive)

compound: O=C(O)c1ccc(N/N=C/c2ccc3ncccc3c2)cc1
assay_result: 0.7% (inactive)

compound: COc1cccc(N(Cc2nnc3n2CCCCC3)C(=O)Nc2ccccc2F)c1
assay_result: -2.9% (inactive)

compound: O=C(Nc1ccccc1C(=O)N1CCOCC1)c1ccc(Cl)cc1
assay_result: -6.3% (inactive)

compound: CCOn1c(=O)c(=O)n(O)c2ccccc21
assay_result: -6.3% (inactive)

compound: CN(C)c1ccc(/C=N/Nc2cc(N3CCOCC3)nc(N3CCOCC3)n2)cc1
assay_result: -5.4% (inactive)

compound: COc1ccc(Cl)cc1NC(=O)CN(C)Cc1ccc(OC)c(OC)c1
assay_result: 2.3% (inactive)

// query Any idea what its inhibition is? The compound is O=C(c1cc(Cl)cc(Cl)c1)N1CCC(=O)N(C(COCc2ccccc2)Cc2ccccc2)CC1 (stereo unspecified)
// result -3.9% (inactive)

// query One more compound: CC(=O)c1c(C)[nH]c(C(=O)OCC(=O)Nc2sc3c(c2C#N)CCCC3)c1C
// result 50.6% (active)

// query Please give the result for C(=N\N1CCN(c2ccccn2)CC1)/C1=C(N2CCOCC2)C(=C/c2ccccc2)/CC1 too.
// result -0.3% (inactive)

// query Now this one: CC(C)(C)C(=O)N1CCC[C@@]1(CO)C(=O)O
// result 1.3% (inactive)

// query Now this one: Cc1cccc(C(=O)OCC(=O)Nc2sc3c(c2C#N)CCC3)c1
// result 5.2% (inactive)

// query Query CCN(C(=O)CSc1nc2ccccc2n1CC)C1CCS(=O)(=O)C1 (stereo unspecified) next
// result -1.3% (inactive)

Cited source: PubChem BioAssay AID1135
